The reported measurements were obtained from ChEMBL document CHEMBL5226303.

- Tested on: DU-145
- assay.procedure: Antiproliferative activity against LPA-induced human DU-145 cells
- Assay type: functional, cell-based
reported.property: IC50 (nM)

(1) CC(C)=CCC/C(C)=C/CC/C(C)=C/Cc1c(O)cc(C)c(C(=O)O)c1O
(2) CC/C=C\C/C=C\C/C=C\C/C=C\C/C=C\C/C=C\CCC(=O)O
stdin: Short answer wanted: higher IC50, 1 or 2 ? When you have decided, please share the label of that item.
stdout: 1

----------
- assayed.target: Free fatty acid receptor 4 (Homo sapiens)
- Sequence (Q5NUL3 whole entry): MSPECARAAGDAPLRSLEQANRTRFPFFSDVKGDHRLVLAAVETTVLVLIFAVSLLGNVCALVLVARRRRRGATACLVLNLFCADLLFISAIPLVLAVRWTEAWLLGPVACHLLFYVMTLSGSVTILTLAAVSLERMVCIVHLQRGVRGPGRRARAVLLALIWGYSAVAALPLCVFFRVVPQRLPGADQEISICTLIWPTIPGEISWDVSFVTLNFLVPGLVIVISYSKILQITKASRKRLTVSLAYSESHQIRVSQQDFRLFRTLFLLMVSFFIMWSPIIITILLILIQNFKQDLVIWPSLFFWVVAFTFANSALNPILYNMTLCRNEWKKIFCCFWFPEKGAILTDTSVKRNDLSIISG
- assay.procedure: Agonist activity at human GPR120 expressed in CHO-K1 cells by beta-arrestin assay
- Format: cell-based
reported.property: EC50 (nM)
Please give a number only; it is taken to be in nM.

stdin: Need EC50, item `C#Cc1cc(Oc2cccnc2)cc(N2Cc3ccccc3S2(=O)=O)c1`
stdout: 5.2
